Source of measurements: ChEMBL document CHEMBL1128790

Binding affinity overview
Target: D(2) dopamine receptor (Homo sapiens) (UniProt P14416)
Sequence (P14416 whole entry): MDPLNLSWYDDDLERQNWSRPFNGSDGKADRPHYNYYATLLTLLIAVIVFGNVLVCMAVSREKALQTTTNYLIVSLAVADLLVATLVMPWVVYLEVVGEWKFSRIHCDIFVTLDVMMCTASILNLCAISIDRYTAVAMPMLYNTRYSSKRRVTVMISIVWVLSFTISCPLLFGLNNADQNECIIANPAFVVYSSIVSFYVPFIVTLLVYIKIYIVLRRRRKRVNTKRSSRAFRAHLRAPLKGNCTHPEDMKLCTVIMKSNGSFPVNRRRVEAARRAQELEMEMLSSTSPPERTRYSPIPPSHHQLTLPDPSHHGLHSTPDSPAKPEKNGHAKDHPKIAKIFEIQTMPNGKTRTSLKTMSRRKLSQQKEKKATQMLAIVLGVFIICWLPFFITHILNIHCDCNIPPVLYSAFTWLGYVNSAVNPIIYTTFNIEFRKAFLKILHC
Assay: Dopamine D2 (spiroperidol) receptor binding affinity

| Compound | Binding affinity |
| --- | --- |
| c1ccc(Cn2cncc2CCNCC23CC(c4ccccc42)c2ccccc23)cc1 | 101 nM |
| C[C@@H]1CN(CCCNCC23CC(c4ccccc42)c2ccccc23)C[C@@H](C)O1 | 36 nM |
| CC[S+]([O-])c1ncccc1C1(O)CCN(CC23CC(c4ccccc42)c2ccccc23)CC1 (stereo not given) | 42 nM |
| CCOC(OCC)C(=O)NC1CCN(CC23CC(c4ccccc42)c2ccc(Cl)cc23)CC1 (stereo not given) | 25 nM |
| c1cnc(NCCCNCC23CC(c4ccccc42)c2ccccc23)nc1 | 265 nM |
| O[C@@H](c1cccnc1)C1CCN(CC23CC(c4ccccc42)c2ccc(Cl)cc23)CC1 (stereo not given in full) | 14 nM |
| c1ccc2c(c1)C1CC2(CN2CCC(N3CCOCC3)CC2)c2ccccc21 | 57 nM |
| Clc1ccc2c(c1)C1(CN3CCC(Nc4ncccn4)CC3)CC2c2ccccc21 (stereo not given) | 49 nM |
| CC(C)(C)C1(O)CCN(CC23CC(c4ccccc42)c2ccc(Cl)cc23)CC1 (stereo not given) | 5 nM |
| c1ccc2c(c1)C1CC2(CNCCCN2CCOCC2)c2ccccc21 | 222 nM |

---

Target: Serotonin 2 (5-HT2) receptor (Homo sapiens) (UniProt P41595+P28223+P28335)
Sequence (P28223 whole entry, looked up): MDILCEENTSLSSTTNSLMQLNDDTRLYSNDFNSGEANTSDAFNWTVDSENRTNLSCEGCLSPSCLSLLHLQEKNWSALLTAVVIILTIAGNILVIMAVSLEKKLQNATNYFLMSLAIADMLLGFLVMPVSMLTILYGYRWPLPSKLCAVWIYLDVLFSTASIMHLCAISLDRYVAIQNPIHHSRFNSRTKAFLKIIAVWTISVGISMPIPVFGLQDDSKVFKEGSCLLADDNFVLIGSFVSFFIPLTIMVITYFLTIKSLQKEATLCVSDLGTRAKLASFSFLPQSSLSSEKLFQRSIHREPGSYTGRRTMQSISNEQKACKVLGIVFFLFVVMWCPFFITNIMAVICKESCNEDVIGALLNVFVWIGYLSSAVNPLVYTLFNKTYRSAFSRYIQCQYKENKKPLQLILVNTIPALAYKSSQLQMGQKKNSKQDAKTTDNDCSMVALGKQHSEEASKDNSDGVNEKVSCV
Sequence (P28335 whole entry, looked up): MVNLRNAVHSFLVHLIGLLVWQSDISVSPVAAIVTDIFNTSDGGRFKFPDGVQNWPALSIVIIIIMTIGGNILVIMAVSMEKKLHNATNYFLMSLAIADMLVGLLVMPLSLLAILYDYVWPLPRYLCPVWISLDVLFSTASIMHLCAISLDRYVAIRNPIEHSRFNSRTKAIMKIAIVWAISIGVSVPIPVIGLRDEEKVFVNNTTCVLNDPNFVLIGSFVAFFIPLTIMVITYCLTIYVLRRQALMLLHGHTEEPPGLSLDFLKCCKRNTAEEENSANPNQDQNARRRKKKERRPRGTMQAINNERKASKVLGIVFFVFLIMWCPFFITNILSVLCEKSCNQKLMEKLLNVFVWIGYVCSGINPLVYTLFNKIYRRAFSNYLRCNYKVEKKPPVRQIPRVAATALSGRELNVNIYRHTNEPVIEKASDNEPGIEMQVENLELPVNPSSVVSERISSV
Sequence (P41595 whole entry, looked up): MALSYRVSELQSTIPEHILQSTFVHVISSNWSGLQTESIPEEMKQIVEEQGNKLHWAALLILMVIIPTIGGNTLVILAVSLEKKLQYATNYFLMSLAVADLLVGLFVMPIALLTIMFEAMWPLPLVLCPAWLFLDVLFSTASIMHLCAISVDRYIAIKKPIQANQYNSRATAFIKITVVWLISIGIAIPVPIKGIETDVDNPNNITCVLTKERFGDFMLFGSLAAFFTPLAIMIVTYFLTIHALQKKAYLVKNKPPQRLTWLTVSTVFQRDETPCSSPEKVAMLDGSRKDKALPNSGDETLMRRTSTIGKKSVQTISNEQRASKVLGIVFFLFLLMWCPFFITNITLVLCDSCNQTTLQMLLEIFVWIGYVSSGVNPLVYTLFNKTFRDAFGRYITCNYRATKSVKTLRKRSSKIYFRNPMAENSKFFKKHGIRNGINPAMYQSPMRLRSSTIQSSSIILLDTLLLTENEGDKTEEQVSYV
Binding affinity overview
Endpoint label: Binding affinity (nM)

| Molecule | Tgt | Endpoint label | Measured number |
| --- | --- | --- | --- |
| C[C@@H]1CN(CCCNCC23CC(c4ccccc42)c2ccccc23)C[C@@H](C)O1 | Serotonin 2 (5-HT2) receptor (Homo sapiens) (UniProt P41595+P28223+P28335) | Binding affinity | 11 |
| CN1CCN(CC23CC(c4ccccc42)c2ccccc23)CC1 | Serotonin 2 (5-HT2) receptor (Homo sapiens) (UniProt P41595+P28223+P28335) | Binding affinity | 314 |
| c1ccc2c(c1)C1CC2(CNCCCN2CCOCC2)c2ccccc21 | Serotonin 2 (5-HT2) receptor (Homo sapiens) (UniProt P41595+P28223+P28335) | Binding affinity | 21 |
| Clc1ccc2c(c1)C1(CN3CCC(Nc4ncccn4)CC3)CC2c2ccccc21 (stereo not given) | Serotonin 2 (5-HT2) receptor (Homo sapiens) (UniProt P41595+P28223+P28335) | Binding affinity | 2 |
| CC(C)(C)C1(O)CCN(CC23CC(c4ccccc42)c2ccc(Cl)cc23)CC1 (stereo not given) | Serotonin 2 (5-HT2) receptor (Homo sapiens) (UniProt P41595+P28223+P28335) | Binding affinity | 1 |

---

Reported log10 Binding affinity, Serotonin 2 (5-HT2) receptor (Homo sapiens) (UniProt P41595+P28223+P28335).
Endpoint label: log10 Binding affinity (log10 of the value in nM)

| Compound | log10 Binding affinity |
| --- | --- |
| CC[S+]([O-])c1ncccc1C1(O)CCN(CC23CC(c4ccccc42)c2ccccc23)CC1 (stereo not given) | 1.59 |
| CCOC(OCC)C(=O)NC1CCN(CC23CC(c4ccccc42)c2ccc(Cl)cc23)CC1 (stereo not given) | 1.60 |
| O[C@@H](c1cccnc1)C1CCN(CC23CC(c4ccccc42)c2ccc(Cl)cc23)CC1 (stereo not given in full) | 0.60 |
| c1ccc(Cn2cncc2CCNCC23CC(c4ccccc42)c2ccccc23)cc1 | 1.92 |
| c1cnc(NCCCNCC23CC(c4ccccc42)c2ccccc23)nc1 | 2.36 |

---

Reported Binding affinity, D(1A) dopamine receptor (Homo sapiens).

| Compound | Binding affinity |
| --- | --- |
| c1cnc(NCCCNCC23CC(c4ccccc42)c2ccccc23)nc1 | 132 nM |
| CC(C)(C)C1(O)CCN(CC23CC(c4ccccc42)c2ccc(Cl)cc23)CC1 (centres undefined) | 7 nM |
| c1ccc2c(c1)C1CC2(CNCCCN2CCOCC2)c2ccccc21 | 349 nM |
| c1ccc(Cn2cncc2CCNCC23CC(c4ccccc42)c2ccccc23)cc1 | 610 nM |
| Clc1ccc2c(c1)C1(CN3CCC(Nc4ncccn4)CC3)CC2c2ccccc21 (centres undefined) | 351 nM |
| CCOC(OCC)C(=O)NC1CCN(CC23CC(c4ccccc42)c2ccc(Cl)cc23)CC1 (centres undefined) | 76 nM |
| CC[S+]([O-])c1ncccc1C1(O)CCN(CC23CC(c4ccccc42)c2ccccc23)CC1 (centres undefined) | 13 nM |
| O[C@@H](c1cccnc1)C1CCN(CC23CC(c4ccccc42)c2ccc(Cl)cc23)CC1 (some centres undefined) | 63 nM |
| C[C@@H]1CN(CCCNCC23CC(c4ccccc42)c2ccccc23)C[C@@H](C)O1 | 60 nM |
